- Method Notes: Pharmacokinetic evaluation in SD rats (intravenous and oral)
- Format: in vivo
- Conditions Used: male, Sprague-Dawley, plasma; SD rat; intravenous injection 1.0 mg/kg (oral 3.0 mg/kg); read-out: Clearance rate CL
- Source text: Test Embodiment 3: Pharmacokinetic Evaluation of Compound in Rats Experimental objective: to test the pharmacokinetics of the compound in SD rats Sprague Dawley rat (male, 200-300 g, 7-9 weeks old, Shanghai SLAC) A standard protocol was used to test the pharmacokinetic characteristics of rodents after intravenous injection and oral administration of the compound. […]
Endpoint Name: clearance (mL/min/kg)

>>> val("CC(C)Oc1ccc(-c2nc(-c3cccc4c3CCC43CCN(C(=O)CO)C3)no2)cc1C#N (stereo not shown)")
5.97
